Please go through the items and note down their purity.
assay: High temperature test (stability); type: physicochemical; details: 60° C., 5 d, HPLC
Form entry: value (%) — number only.

response.value for CCCCCCN(CCCCCC)c1ccc(-n2c(C)nc(C)cc2=O)cc1F.Cl [Example 1] (field: purity) = 99.80

response.value for CCCCCCN(CCCCCC)c1ccc(-n2c(C)nc(C)cc2=O)cc1F.O=C(O)/C=C\C(=O)O [Example 8] (field: purity) = 99.49

response.value for CCCCCCN(CCCCCC)c1ccc(-n2c(C)nc(C)cc2=O)cc1F.Cl [Example 2] (field: purity) = 99.86

response.value for CCCCCCN(CCCCCC)c1ccc(-n2c(C)nc(C)cc2=O)cc1F.Cc1ccc(S(=O)(=O)O)cc1 [Example 6] (field: purity) = 99.81

###

experiment: Pharmacokinetics experiments of the salts, oral capsules in Beagle dogs; conditions: male, Beagle, dog, plasma, po, 5 mg/kg
endpoint: MRT inf (h)
Form entry: value (h) — number only.

response.value for CCCCCCN(CCCCCC)c1ccc(-n2c(C)nc(C)cc2=O)cc1F [Compound (I)] (field: MRT inf) = 23.3

###

assay: Pharmacokinetics experiments of the salts, oral capsules in Beagle dogs; details: male, Beagle, dog, plasma, po, 5 mg/kg
endpoint: half-life (h)
Form entry: value (h) — number only.

response.value for CCCCCCN(CCCCCC)c1ccc(-n2c(C)nc(C)cc2=O)cc1F [Compound (I)] (field: half-life) = 13.8

###

assay: High humidity test (stability); format: physicochemical; conditions: 25° C., RH 90%±5%, 0 d, HPLC
endpoint: purity (%)
Form entry: value (%) — number only.

response.value for `CCCCCCN(CCCCCC)c1ccc(-n2c(C)nc(C)cc2=O)cc1F.O=C(O)/C=C\C(=O)O` (field: purity) = 99.53

response.value for CCCCCCN(CCCCCC)c1ccc(-n2c(C)nc(C)cc2=O)cc1F.Cl [Example 2] (field: purity) = 99.85

response.value for CCCCCCN(CCCCCC)c1ccc(-n2c(C)nc(C)cc2=O)cc1F.Cl [Example 1] (field: purity) = 99.81

response.value for `CCCCCCN(CCCCCC)c1ccc(-n2c(C)nc(C)cc2=O)cc1F.Cc1ccc(S(=O)(=O)O)cc1` (field: purity) = 99.83

###

Please go through the items and note down their purity.
Assay: High temperature test (stability)
Type: physicochemical
Details: 60° C., 0 d, HPLC
Description: High temperature test: an appropriate amount of sample was put in a weighing bottle in the form of a thin layer of ≤5 mm, under a temperature of 60° C. for 10 days. Samples were took at fifth and tenth day, appearance was observed and purity was detected by HPLC.
Form entry: value (%) — number only.

response.value for `CCCCCCN(CCCCCC)c1ccc(-n2c(C)nc(C)cc2=O)cc1F.O=C(O)/C=C\C(=O)O` (field: purity) = 99.53

response.value for CCCCCCN(CCCCCC)c1ccc(-n2c(C)nc(C)cc2=O)cc1F.Cl [Example 1] (field: purity) = 99.81

response.value for CCCCCCN(CCCCCC)c1ccc(-n2c(C)nc(C)cc2=O)cc1F.Cl [Example 2] (field: purity) = 99.85

response.value for `CCCCCCN(CCCCCC)c1ccc(-n2c(C)nc(C)cc2=O)cc1F.Cc1ccc(S(=O)(=O)O)cc1` (field: purity) = 99.83

###

Please go through the items and note down their purity.
assay: High humidity test (stability); type: physicochemical; details: 25° C., RH 90%±5%, 10 d, HPLC
Param answer (str): number followed by unit.

response.value for CCCCCCN(CCCCCC)c1ccc(-n2c(C)nc(C)cc2=O)cc1F.Cl [Example 1] (field: purity) = 99.80%

response.value for CCCCCCN(CCCCCC)c1ccc(-n2c(C)nc(C)cc2=O)cc1F.Cc1ccc(S(=O)(=O)O)cc1 [Example 6] (field: purity) = 99.83%

response.value for CCCCCCN(CCCCCC)c1ccc(-n2c(C)nc(C)cc2=O)cc1F.O=C(O)/C=C\C(=O)O [Example 8] (field: purity) = 99.49%

response.value for CCCCCCN(CCCCCC)c1ccc(-n2c(C)nc(C)cc2=O)cc1F.Cl [Example 2] (field: purity) = 99.82%

###

test: Pharmacokinetics experiments of the salts, oral capsules in Beagle dogs; details: male, Beagle, dog, plasma, po, 5 mg/kg
endpoint: AUC(0-t)
Param answer (str): number followed by unit.

response.value for `CCCCCCN(CCCCCC)c1ccc(-n2c(C)nc(C)cc2=O)cc1F` (field: AUC(0-t)) = 1730 ng·h/mL

###

Experiment: High humidity test (stability)
Assay type: physicochemical
Settings: 25° C., RH 90%±5%, 5 d, HPLC
Method: High humidity test: an appropriate amount of sample was put in a weighing bottle in the form of a thin layer of ≤5 mm, under a temperature of 25° C. and RH 90%±5% for 10 days. Samples were took at fifth and tenth day, appearance was observed and purity was detected by HPLC.
Please go through the items and note down their purity.
Param answer (str): number followed by unit.

response.value for CCCCCCN(CCCCCC)c1ccc(-n2c(C)nc(C)cc2=O)cc1F.Cl [Example 2] (field: purity) = 99.86%

response.value for CCCCCCN(CCCCCC)c1ccc(-n2c(C)nc(C)cc2=O)cc1F.Cl [Example 1] (field: purity) = 99.79%

response.value for `CCCCCCN(CCCCCC)c1ccc(-n2c(C)nc(C)cc2=O)cc1F.Cc1ccc(S(=O)(=O)O)cc1` (field: purity) = 99.80%

response.value for `CCCCCCN(CCCCCC)c1ccc(-n2c(C)nc(C)cc2=O)cc1F.O=C(O)/C=C\C(=O)O` (field: purity) = 99.51%

###

test: Pharmacokinetics experiments of the salts, oral capsules in Beagle dogs; conditions: male, Beagle, dog, plasma, po, 5 mg/kg
endpoint: AUC(0-inf) (µg·h/mL)
Form entry: value (µg·h/mL) — number only.

response.value for `CCCCCCN(CCCCCC)c1ccc(-n2c(C)nc(C)cc2=O)cc1F` (field: AUC(0-inf)) = 2.32

###

assay: Pharmacokinetics experiments of the salts, oral capsules in Beagle dogs; settings: male, Beagle, dog, plasma, po, 5 mg/kg
endpoint: Cmax (ng/mL)
Form entry: value (ng/mL) — number only.

response.value for `CCCCCCN(CCCCCC)c1ccc(-n2c(C)nc(C)cc2=O)cc1F` (field: Cmax) = 244

###

assay: Pharmacokinetics experiments of the salts, oral capsules in Beagle dogs; settings: male, Beagle, dog, plasma, po, 5 mg/kg
endpoint: Tmax
Param answer (str): number followed by unit.

response.value for CCCCCCN(CCCCCC)c1ccc(-n2c(C)nc(C)cc2=O)cc1F [Compound (I)] (field: Tmax) = 1.17 h
